- test protocol: qHTS Assay for Agonists of the Thyroid Stimulating Hormone Receptor: Activators of Intracellular cAMP Concentrations in Parental HEK 293; also: nearly all actives have a fitted effect of over 55% in size; as to activation: % of control where 0% means no effect
- test context: parental HEK293 CNG cAMP sensor, membrane potential fluorescence; series mostly up to 57.1 µM
In all, about 73,000 compounds went through this assay and about 1,800 (2.5%) were called active. Another 13% or so got no clear call; they are omitted. Calls follow the shape of the dose curve; as a rule, active = well fitted activation curve with a large enough effect; inconclusive = small, poorly fitted or top-dose-only effect; inactive = no such curve, though single readings can be large or run the other way. The entries come from a sample that favours actives as a whole.
Hi there, use one of these labels in your reply, thanks! active, inactive

Some solved cases for reference:
[[record]]
compound = "CC12CCC(C(=O)N3CCN(c4ncccn4)CC3)(c3nc4ccccc4nc31)C2(C)C (stereo unspecified)"
qualitative_label = "inactive"

[[record]]
compound = "COc1ccc(OC)c(C(=O)c2ccc(C(=O)O)cc2)c1"
qualitative_label = "inactive"

[[record]]
compound = "CCCOc1ccc(NC(=O)C2CCCNC2=O)cc1 (stereo unspecified)"
qualitative_label = "inactive"

[[record]]
compound = "Cc1ccc(-c2nc(CS(=O)CC(=O)N3CCN(c4ncccn4)CC3)c(C)o2)cc1 (stereo unspecified)"
qualitative_label = "inactive"

[[record]]
compound = "O=C(c1cnccn1)N1CCC2(CCN(Cc3cc(C(F)(F)F)cc(C(F)(F)F)c3)CC2)CC1"
qualitative_label = "inactive"


Task: Recorded call for COc1ccccc1C(=O)C(O)c1ccccc1OC (stereo unspecified) ?
Result: inactive

Task: Please state the recorded outcome for this compound: CC(=O)N1CCC2(CCCN(Cc3ccc(C#N)cc3)C2)CC1
Result: inactive

Task: So what was the verdict on N#CC1=C(SCc2ccccc2)NC(=O)C(C#N)C12CCCC2 (stereo unspecified) in this test?
Result: active

====

- test protocol: qHTS Assay for Agonists of the Thyroid Stimulating Hormone Receptor: Activators of Intracellular cAMP Concentrations in Parental HEK 293; also: nearly all actives have a fitted effect of over 55% in size; as to activation: % of control where 0% means no effect
- test context: parental HEK293 CNG cAMP sensor, membrane potential fluorescence; series mostly up to 57.1 µM
The whole screen tested about 73,000 compounds, of which about 1,800 (2.5%) were called active. About 13% were inconclusive and are not listed. The call rests on the fitted dose curve; in most records, active means well fitted activation curve with a large enough effect; inconclusive means small, poorly fitted or top-dose-only effect; inactive means no such curve, though single readings can be large or run the other way. What follows is part of a selection rich in actives, with near analogues and random picks from the rest.
Write down the outcome that applies. Available outcomes: active, inactive

Sample answers from the record:
[[record]]
compound = "COCCNc1nc(-n2nc(C)cc2C)nc2sc3c(c12)CCCC3"
qualitative_label = "active"

[[record]]
compound = "O=C(CNCCO)NC12CC3CC(CC(C3)C1)C2"
qualitative_label = "inactive"

[[record]]
compound = "COc1ccccc1-c1nc(NCCNC(C)=O)c2ccccc2n1"
qualitative_label = "inactive"

[[record]]
compound = "CCCC[C@@H]1C[C@H]1C(NC(=O)c1ccco1)c1ccc(C(=O)OC)cc1 (some centres undefined)"
qualitative_label = "active"

[[record]]
compound = "NCCCNCCCCN(CCCN)/[N+]([O-])=N/O"
qualitative_label = "inactive"


Task: Answer briefly: the call reported for COc1ccccc1-c1nc(NCc2cccs2)c2ccccc2n1 in this assay.
Result: active

Task: Please indicate how the test categorized N#CC1=C(N)OC2=C(C(=O)CCC2)C1C1CC=CCC1 (centres undefined) .
Result: inactive

Task: Each compound tested received a call. Report the one for Cc1cc(C)n(-c2nc(SCC(=O)N3CCCC3)c3c4c(sc3n2)CCCC4)n1 .
Result: inactive

====

- test protocol: qHTS Assay for Agonists of the Thyroid Stimulating Hormone Receptor: Activators of Intracellular cAMP Concentrations in Parental HEK 293; also: nearly all actives have a fitted effect of over 55% in size; as to activation: % of control where 0% means no effect
- test context: parental HEK293 CNG cAMP sensor, membrane potential fluorescence; series mostly up to 57.1 µM
Hit rate of the full screen: of about 73,000 compounds, about 1,800 (2.5%) were called active. About 13% were inconclusive and are not listed. Calls come from the whole dose curve; as a rule, active = well fitted activation curve with a large enough effect; inconclusive = small, poorly fitted or top-dose-only effect; inactive = no such curve, though single readings can be large or run the other way. The list comes from a sample in which actives are over-represented; it also holds close analogues and randomly drawn compounds.
Respond with a class label; see 1 = active, 0 = inactive

# example entries with known answers
[[record]]
compound = "CCCCCCCCCCCC(=O)O[C@H](CC(=O)O)C[N+](C)(C)C"
qualitative_label = 0

[[record]]
compound = "O=C(c1csnn1)N1CCC[C@@]2(CCN(c3cccc(-c4ccccc4)c3)C2)C1"
qualitative_label = 0

[[record]]
compound = "CCc1ccc(NC(=O)CSc2nc3ccccc3c(=O)n2CCN2CCOCC2)cc1"
qualitative_label = 1

[[record]]
compound = "CC(=O)N1CCC2(CCCN(c3ncccn3)C2)CC1"
qualitative_label = 0

[[record]]
compound = "Cc1cc(NC(=O)CN2CCCCC2C)nc2c1c(=O)oc1ccccc12 (centres undefined)"
qualitative_label = 0

[[record]]
compound = "O=C(OCC(COC(=O)c1ccccc1)(COC(=O)c1ccccc1)COC(=O)c1ccccc1)c1ccccc1"
qualitative_label = 0

[[record]]
compound = "CCc1ccc2oc(=O)cc(CN3CCCCC3C)c2c1 (centres undefined)"
qualitative_label = 1

[[record]]
compound = "CCC1Oc2ccc(Cl)cc2N(CC(=O)O)C1=O (centres undefined)"
qualitative_label = 0


Task: What is the recorded call for this compound in the test? O=C(NCc1ccco1)c1nc(-c2ccccc2)n(-c2ccccc2)n1
Result: 0

Task: Please indicate how the test categorized O=C(c1ccncc1)N1CCC2(CCCN(C(c3ccccc3)c3ccccc3)C2)CC1 .
Result: 1

Task: Could you kindly confirm the outcome this assay logged for Cc1cccc(-n2ncc3c(N4CCc5ccccc54)ncnc32)c1 ?
Result: 0

Task: Fill in: this test's call for Cc1cc(C)c2[nH]c(=O)c(C(c3nnnn3Cc3ccc4c(c3)OCO4)N3CCCC3)cc2c1 (centres undefined) is ___
Result: 0

Task: Please share the test call associated with Cc1ccc(S(=O)(=O)Cn2nnnc2CN2CCN(Cc3ccc4c(c3)OCO4)CC2)cc1 .
Result: 0

====

- test protocol: qHTS Assay for Agonists of the Thyroid Stimulating Hormone Receptor: Activators of Intracellular cAMP Concentrations in Parental HEK 293; also: nearly all actives have a fitted effect of over 55% in size; as to activation: % of control where 0% means no effect
- test context: parental HEK293 CNG cAMP sensor, membrane potential fluorescence; series mostly up to 57.1 µM
Among all 73,000 compounds or so, about 1,800 (2.5%) were called active. About 13% were inconclusive and are not listed. The call rests on the fitted dose curve; in most records, active means well fitted activation curve with a large enough effect; inconclusive means small, poorly fitted or top-dose-only effect; inactive means no such curve, though single readings can be large or run the other way. The list comes from a sample in which actives are over-represented; it also holds close analogues and randomly drawn compounds.
Please reply with one of these outcomes: 1 for active, 0 for inactive

For orientation, consider the following solved cases.
[[record]]
compound = "Cc1ccc(C)c(N2CCN(C(=O)CCc3nc4ccccc4[nH]3)CC2)c1"
qualitative_label = 0

[[record]]
compound = "Cc1noc(C)c1-c1cc(NCc2cccnc2)ncn1"
qualitative_label = 0

[[record]]
compound = "COCc1nnc(NC(=O)CS(=O)(=O)Cc2ccccc2)s1"
qualitative_label = 0

[[record]]
compound = "COc1c(C)cccc1C(=O)Nc1cc(Cl)ccc1N1CCOCC1"
qualitative_label = 1

[[record]]
compound = "O=C(NC(Cc1ccccc1)C(=O)N1CCCC1C(=O)O)c1ccccc1 (stereo not given)"
qualitative_label = 0


Task: Dear colleague, could you share the recorded outcome for CCOC(=O)c1nc(-c2ccc3c(c2)OCO3)[nH]c1C when you have a moment?
Result: 0

Task: Identify the outcome logged in this assay for the compound shown: COc1ccccc1Nc1ncnc2c1oc1ccccc12
Result: 1

Task: Lab log entry: Cc1noc(C)c1CSc1nc2cc(S(=O)(=O)N3CCOCC3)ccc2o1 — outcome as called in the assay?
Result: 0

====

- test protocol: qHTS Assay for Agonists of the Thyroid Stimulating Hormone Receptor: Activators of Intracellular cAMP Concentrations in Parental HEK 293; also: nearly all actives have a fitted effect of over 55% in size; as to activation: % of control where 0% means no effect
- test context: parental HEK293 CNG cAMP sensor, membrane potential fluorescence; series mostly up to 57.1 µM
The whole screen tested about 73,000 compounds, of which about 1,800 (2.5%) were called active. Inconclusive results (about 13%) are left out. Calls come from the whole dose curve; as a rule, active = well fitted activation curve with a large enough effect; inconclusive = small, poorly fitted or top-dose-only effect; inactive = no such curve, though single readings can be large or run the other way. Many of the other results were omitted from the sample, so actives are more common in it than they were.
The reply should name one outcome from active, inactive

Task: Tell me the recorded outcome of this test for CC(C)(C)NC(=O)C(c1ccncc1)N(C(=O)CNC(=O)c1ccco1)c1ccc2c(c1)OCO2 (stereo unspecified) .
Result: inactive

Task: What is the recorded call for this molecule in the test? Cc1cc(C)c(C#N)c(SCc2ccc3c(c2)OCO3)n1
Result: active

Task: Record request — test call for Cc1cc(N2CCN(Cc3ccc4c(c3)OCO4)CC2)n2ncnc2n1
Result: inactive

====

- test protocol: qHTS Assay for Agonists of the Thyroid Stimulating Hormone Receptor: Activators of Intracellular cAMP Concentrations in Parental HEK 293; also: nearly all actives have a fitted effect of over 55% in size; as to activation: % of control where 0% means no effect
- test context: parental HEK293 CNG cAMP sensor, membrane potential fluorescence; series mostly up to 57.1 µM
In all, about 73,000 compounds went through this assay and about 1,800 (2.5%) were called active. Not shown: some 13% with an inconclusive outcome. Calls come from the whole dose curve; as a rule, active = well fitted activation curve with a large enough effect; inconclusive = small, poorly fitted or top-dose-only effect; inactive = no such curve, though single readings can be large or run the other way. This is one part of a sample in which actives are shown more often than they occur.
API: response.call in y (active), n (inactive)

[[record]]
mol = "CC1CCN(C(=O)Cn2cc(C(=O)c3ccco3)c3ccccc32)CC1"
qualitative_label = "y"


Please turn your attention to the following entry.
Task: Test call for this molecule, please: CCOC(=O)C1CCN(C(=O)Cn2cc(C#N)c3ccccc32)CC1
Result: n
